# credit: patent US10561635B2

assay: PK-01: pharmacokinetics and relative bioavailability of single doses in healthy subjects; format: in vivo, human; conditions: human, plasma, inhaled, 40 mg, 40 mg single dose, eFlow 30 L
result_type: AUC(0-inf) (ng·h/mL)
Give the quantity in ng·h/mL, number only.

Request: Which AUC(0-inf) is reported for this compound? O=C([O-])c1cc(=O)c2c(OCC(O)COc3cccc4oc(C(=O)O)cc(=O)c34)cccc2o1.[Na+] [cromolyn sodium]
Result: 338

* * *

assay: PK-01: pharmacokinetics and relative bioavailability of single doses in healthy subjects; type: in vivo, human; settings: human, plasma, inhaled, 40 mg, 40 mg single dose, eFlow 40 L
result_type: AUC(0-inf)
Param answer (str): number followed by unit.

Request: Which AUC(0-inf) is reported for this compound? O=C([O-])c1cc(=O)c2c(OCC(O)COc3cccc4oc(C(=O)O)cc(=O)c34)cccc2o1.[Na+] [cromolyn sodium]
Result: 212 ng·h/mL
